Molecular target: furin, P09958;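 note: purified furin at 1:10 enzyme:substrate in 50 mM HEPES pH 7.5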
Sequence (P09958 whole entry): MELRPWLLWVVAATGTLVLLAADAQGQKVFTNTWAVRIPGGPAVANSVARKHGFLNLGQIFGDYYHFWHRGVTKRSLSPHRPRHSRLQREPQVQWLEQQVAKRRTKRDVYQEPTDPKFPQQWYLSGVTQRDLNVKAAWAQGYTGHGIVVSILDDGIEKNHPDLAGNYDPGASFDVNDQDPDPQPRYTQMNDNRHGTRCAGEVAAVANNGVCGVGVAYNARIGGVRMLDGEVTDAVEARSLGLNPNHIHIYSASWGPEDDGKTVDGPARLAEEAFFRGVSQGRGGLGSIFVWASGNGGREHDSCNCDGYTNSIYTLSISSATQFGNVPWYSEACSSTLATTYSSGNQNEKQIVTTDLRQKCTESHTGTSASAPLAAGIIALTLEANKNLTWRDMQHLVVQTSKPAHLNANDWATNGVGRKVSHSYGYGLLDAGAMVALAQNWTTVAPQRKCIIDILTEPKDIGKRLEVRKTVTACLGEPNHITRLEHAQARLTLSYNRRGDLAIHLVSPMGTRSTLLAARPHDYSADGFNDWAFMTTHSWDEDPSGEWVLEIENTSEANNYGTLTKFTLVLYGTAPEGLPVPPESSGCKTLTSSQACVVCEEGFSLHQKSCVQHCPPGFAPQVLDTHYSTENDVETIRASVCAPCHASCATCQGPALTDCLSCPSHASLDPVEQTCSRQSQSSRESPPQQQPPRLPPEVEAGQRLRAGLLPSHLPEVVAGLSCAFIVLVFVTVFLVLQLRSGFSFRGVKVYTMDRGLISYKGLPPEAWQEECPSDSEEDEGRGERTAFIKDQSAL
Experiment: furin cleavage Z-score vs untreated control; higher = more cleavage, active = 3.5 or more, inactive = 1 or less, 8 variable residues between constant flanks
Conditions: 7.5 min
The other results are listed elsewhere or left out. The hit rate among all sequences tested is not known here.
Result category, one only: active, inactive

Sequence Text: CAEWVVCCSMAGNASASA [HC2128]
Cat: inactive

Sequence Text: CAPEIRQARAAGNASASA [FS-1043]
Cat: active

Sequence Text: CAIRARVARAAGNASASA [FS-1348]
Cat: active

Sequence Text: CASTSCSAHLAGNASASA [HC2517]
Cat: inactive

Sequence Text: CALPGIPFVSAGNASASA [HC1162]
Cat: inactive

Sequence Text: CAAACGDIINAGNASASA [HC656]
Cat: inactive

Sequence Text: CARNKRQSKSAGNASASA [FS-3009]
Cat: active

Sequence Text: CAPTLWARMIAGNASASA [HC1579]
Cat: inactive

// switching to the query sequence
Challenge: Call for entry CAREIRQAFKAGNASASA [FS-2912] :
Response given: inactive
